Provenance of the data: patent US5589568A

# Test system: Gi
# protocol: steady state GTPase activity of Gi in phospholipid vesicles
# Assay type: biochemical, rabbit
# experimental parameters: 100 μg/ml amine; 30 min at 30° C.
reported endpoint: Turnover number Gi 100 μg/ml

Which Turnover number Gi 100 μg/ml is listed for CCCC[N+](CCCC)(CCCC)Cc1ccccc1.[Cl-] [BzBu3 NCl, reference compound] ? 0.04 min⁻¹

Quick check: Turnover number Gi 100 μg/ml of `CCCCCCCCCCCCN` ? 0.31 min⁻¹

Bench note: what Turnover number Gi 100 μg/ml did CCCCCCCCCCCCCCCCCC[N+](C)(C)C.[Cl-] [C18 Me3 NCl, reference compound] show? < 0.01 min⁻¹

Would you mind telling me what Turnover number Gi 100 μg/ml value was observed for CCCCCCCCCCCCCCCCCC[N+](C)(C)Cc1ccccc1.[Cl-] [BAC (C18 ), reference compound] ? < 0.01 min⁻¹

What Turnover number Gi 100 μg/ml value was documented for this compound, CCCCCCCCCCCCC[N+](C)(C)Cc1ccccc1 [BAC (C-12), benzalkonium chloride] ? 0.04 min⁻¹

What does the record list as Turnover number Gi 100 μg/ml for CCCCCCCCCCCCCCCC[N+](C)(C)Cc1ccccc1.[Cl-] [BAC (C16 ), reference compound] ? < 0.01 min⁻¹

Any idea what Turnover number Gi 100 μg/ml was measured for CCCCCCCCCCCCCC[N+](C)(C)Cc1ccccc1.[Cl-] [BAC (C14), reference compound] ? < 0.01 min⁻¹

Fill in the blank: the reported Turnover number Gi 100 μg/ml of CCCCCCCCCCCC[N+](C)(C)C.[Cl-] [C12 Me3 NCl, reference compound] is ____. 0.04 min⁻¹

---

# system name: Gi
# protocol: steady state GTPase activity of Gi in phospholipid vesicles
# Type: biochemical, rabbit
# experimental parameters: Table VI, receptor-based peptides; read-out: Gi af. (apparent affinity, estimated by EC50 of GTPase activity)
pEC50: −log10 of the molar value. Where no end group is shown, it is not given here.
reported endpoint: pEC50

Fill in the blank: the reported pEC50 of CPFRYQSLNTRARAKVI-NH2 [ER39] is ____. < 4.00

---

# system name: Gs (Homo sapiens)
# Sequence (P63092 whole entry): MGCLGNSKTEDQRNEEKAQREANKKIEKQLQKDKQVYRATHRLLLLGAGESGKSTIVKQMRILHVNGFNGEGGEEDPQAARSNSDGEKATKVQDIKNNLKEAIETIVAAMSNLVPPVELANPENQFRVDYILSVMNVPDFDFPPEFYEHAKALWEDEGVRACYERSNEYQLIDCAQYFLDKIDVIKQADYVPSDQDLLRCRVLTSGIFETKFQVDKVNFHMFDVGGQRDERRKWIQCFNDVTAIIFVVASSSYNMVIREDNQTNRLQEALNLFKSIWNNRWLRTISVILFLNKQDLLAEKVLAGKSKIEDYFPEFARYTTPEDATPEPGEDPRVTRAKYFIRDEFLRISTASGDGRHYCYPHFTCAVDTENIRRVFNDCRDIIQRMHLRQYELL
# protocol: steady state GTPase activity of Gs
# Type: biochemical
# experimental parameters: Table IV; read-out: Gs af. (apparent affinity, estimated by EC50 of GTPase activity)
Where no end group is shown, it is not given here.
Item-by-item account of EC50

Provide the documented EC50 with Gs (Homo sapiens) as the system for INYKALCALAKKIL-NH2 [ER15] 10 to 30 µM

Query for Gs (Homo sapiens): what EC50 does the record show for INLKALAALKKALL-NH2 [ER25] ? 10 to 30 µM

State its EC50 on Gs (Homo sapiens): INLKALAALAAKLL-NH2 [Mas9] 30 to 100 µM

Recorded EC50 for INLKAKAALAKKLL-NH2 [Mas17] with Gs (Homo sapiens), please? 3 to 10 µM

For the record IQLKALAALAKALL-NH2 [ER12] , what value of EC50 is listed for Gs (Homo sapiens)? 3 to 10 µM

API: value(readout= EC50, system= Gs (Homo sapiens), query= INAKALAALAKKLL-NH2 [MAS21] ) 10 to 30 µM

Notebook: pull reported EC50 for Gs (Homo sapiens), entry INLKAIAAFAKKLL-NH2 [MP-T, reference compound] 10 to 30 µM

---

# system name: Gs (Homo sapiens)
# protocol: steady state GTPase activity of Gs
# Format: biochemical
# experimental parameters: Table IV; read-out: Gs af. (apparent affinity, estimated by EC50 of GTPase activity)
pEC50: −log10 of the molar value.
This section presents molecules with their documented pEC50 values.

Example results:
CC[C@H](C)[C@H](N)C(=O)N[C@@H](CC(N)=O)C(=O)N[C@@H](CC(C)C)C(=O)N[C@@H](CCCCN)C(=O)N[C@@H](C)C(=O)N[C@@H](CC(C)C)C(=O)N[C@@H](C)C(=O)N[C@@H](C)C(=O)N[C@@H](CC(C)C)C(=O)N[C@@H](C)C(=O)N[C@@H](CCCCN)C(=O)N[C@@H](CCCCN)C(=O)N[C@@H](CCCCN)C(=O)N[C@@H](CC(C)C)C(N)=O	4.00 to 4.52
CC[C@H](C)[C@H](N)C(=O)N[C@@H](CC(N)=O)C(=O)N[C@@H](CC(C)C)C(=O)N[C@@H](CCCCN)C(=O)N[C@@H](C)C(=O)N[C@@H](CC(C)C)C(=O)N[C@@H](C)C(=O)N[C@@H](C)C(=O)N[C@@H](CC(C)C)C(=O)N[C@@H](C)C(=O)N[C@@H](CCCCN)C(=O)N[C@@H](CCCCN)C(=O)N[C@@H](C)C(=O)N[C@@H](CC(C)C)C(N)=O	4.52 to 5.00

Next molecule, please.
Entry `CC[C@H](C)[C@H](N)C(=O)N[C@@H](CC(N)=O)C(=O)N[C@@H](CC(C)C)C(=O)N[C@@H](CCCCN)C(=O)N[C@@H](C)C(=O)N[C@@H](CC(C)C)C(=O)N[C@@H](C)C(=O)N[C@@H](C)C(=O)N[C@@H](CC(C)C)C(=O)N[C@@H](C)C(=O)N[C@@H](CCCCN)C(=O)N[C@@H](CCCCN)C(=O)N[C@H](C(=O)N[C@@H](CC(C)C)C(N)=O)[C@@H](C)CC` has what pEC50? 5.00 to 5.52

---

# Tested on: Gi
# protocol: steady state GTPase activity of Gi in phospholipid vesicles;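 also: Steady-state GTP hydrolysis by Gi measured in a detergent-free buffer containing 1.1 mM MgSO4 plus the specified guanine nucleotide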
# Assay type: biochemical, rabbit
# experimental parameters: 10 μg/ml amine; 30 min at 30° C.
reported endpoint: Turnover number Gi 10 μg/ml (min⁻¹)
Numbers only here, please. The scale is min⁻¹.

CCCCCCCCCCCCN	0.06
CCCCCCCCCCCCCCCCCC[N+](C)(C)C.[Cl-] [C18 Me3 NCl, reference compound]	0.04
CCCCCCCCCCCC[N+](C)(C)C.[Cl-] [C12 Me3 NCl, reference compound]	0.04

Return reported Turnover number Gi 10 μg/ml; argument: CCCCCCCCCCCCCCCC[N+](C)(C)Cc1ccccc1.[Cl-] [BAC (C16 ), reference compound] 0.04

// returns reported Turnover number Gi 10 μg/ml for input CCCCCCCCCCCCCCCCCC[N+](C)(C)Cc1ccccc1.[Cl-] [BAC (C18 ), reference compound] 0.03
